B1: APBB1IP (parent)
chain: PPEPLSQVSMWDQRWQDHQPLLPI

Variants of: B1
PROTOCOL NOTES: protein stability index of a GFP-peptide fusion (GPS, HEK-293T) (PSI 1-6); higher = more stable;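 also: lentivirally expressed fusions sorted by FACS into six bins by GFP to DsRed ratio, PSI derived from sequencing read proportions per bin multiplied by bin number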
APPLIED CONDITIONS: c terminus: a fixed tail appended
Is protein stability index at least 3? Then Fulfilled. If not, Not fulfilled.

QUERY: State whether the measured protein stability index reaches 3, counting equality as reaching it, for "S9R"
RESULT: Fulfilled

QUERY: State whether the measured protein stability index reaches 3, counting equality as reaching it, for "I24F"
RESULT: Not fulfilled

QUERY: State whether the measured protein stability index reaches 3, counting equality as reaching it, for "P4G"
RESULT: Not fulfilled

QUERY: State whether the measured protein stability index reaches 3, counting equality as reaching it, for "L21Q"
RESULT: Fulfilled

QUERY: State whether the measured protein stability index reaches 3, counting equality as reaching it, for "P2V"
RESULT: Fulfilled

QUERY: State whether the measured protein stability index reaches 3, counting equality as reaching it, for "D12C"
RESULT: Not fulfilled

QUERY: State whether the measured protein stability index reaches 3, counting equality as reaching it, for "Q16V"
RESULT: Not fulfilled

QUERY: State whether the measured protein stability index reaches 3, counting equality as reaching it, for "W11Q"
RESULT: Fulfilled

QUERY: State whether the measured protein stability index reaches 3, counting equality as reaching it, for "L21S"
RESULT: Fulfilled

QUERY: State whether the measured protein stability index reaches 3, counting equality as reaching it, for "P20Q"
RESULT: Fulfilled

QUERY: State whether the measured protein stability index reaches 3, counting equality as reaching it, for "L21K"
RESULT: Fulfilled

QUERY: State whether the measured protein stability index reaches 3, counting equality as reaching it, for "S9M"
RESULT: Fulfilled

QUERY: State whether the measured protein stability index reaches 3, counting equality as reaching it, for "P2S"
RESULT: Not fulfilled

QUERY: State whether the measured protein stability index reaches 3, counting equality as reaching it, for "H18C"
RESULT: Fulfilled

QUERY: State whether the measured protein stability index reaches 3, counting equality as reaching it, for "L5H"
RESULT: Fulfilled

QUERY: State whether the measured protein stability index reaches 3, counting equality as reaching it, for "P23T"
RESULT: Not fulfilled

QUERY: State whether the measured protein stability index reaches 3, counting equality as reaching it, for "W15I"
RESULT: Fulfilled

QUERY: State whether the measured protein stability index reaches 3, counting equality as reaching it, for "L21H"
RESULT: Fulfilled

QUERY: State whether the measured protein stability index reaches 3, counting equality as reaching it, for "D17K"
RESULT: Not fulfilled

QUERY: State whether the measured protein stability index reaches 3, counting equality as reaching it, for "L5M"
RESULT: Not fulfilled

QUERY: State whether the measured protein stability index reaches 3, counting equality as reaching it, for "P23N"
RESULT: Fulfilled

QUERY: State whether the measured protein stability index reaches 3, counting equality as reaching it, for "W11V"
RESULT: Fulfilled

QUERY: State whether the measured protein stability index reaches 3, counting equality as reaching it, for "L22W"
RESULT: Not fulfilled

QUERY: State whether the measured protein stability index reaches 3, counting equality as reaching it, for "R14S"
RESULT: Fulfilled

QUERY: State whether the measured protein stability index reaches 3, counting equality as reaching it, for "D17P"
RESULT: Fulfilled

QUERY: State whether the measured protein stability index reaches 3, counting equality as reaching it, for "D17C"
RESULT: Not fulfilled

QUERY: State whether the measured protein stability index reaches 3, counting equality as reaching it, for "P1L"
RESULT: Not fulfilled

QUERY: State whether the measured protein stability index reaches 3, counting equality as reaching it, for "E3W"
RESULT: Not fulfilled

QUERY: State whether the measured protein stability index reaches 3, counting equality as reaching it, for "P4T"
RESULT: Fulfilled

QUERY: State whether the measured protein stability index reaches 3, counting equality as reaching it, for "D12A"
RESULT: Not fulfilled

QUERY: State whether the measured protein stability index reaches 3, counting equality as reaching it, for "R14Q"
RESULT: Not fulfilled

QUERY: State whether the measured protein stability index reaches 3, counting equality as reaching it, for "V8R"
RESULT: Not fulfilled

QUERY: State whether the measured protein stability index reaches 3, counting equality as reaching it, for "P20F"
RESULT: Not fulfilled

QUERY: State whether the measured protein stability index reaches 3, counting equality as reaching it, for "I24D"
RESULT: Fulfilled

QUERY: State whether the measured protein stability index reaches 3, counting equality as reaching it, for "P23R"
RESULT: Not fulfilled

QUERY: State whether the measured protein stability index reaches 3, counting equality as reaching it, for "Q19P"
RESULT: Not fulfilled

QUERY: State whether the measured protein stability index reaches 3, counting equality as reaching it, for "H18K"
RESULT: Fulfilled

QUERY: State whether the measured protein stability index reaches 3, counting equality as reaching it, for "P20Y"
RESULT: Not fulfilled

QUERY: State whether the measured protein stability index reaches 3, counting equality as reaching it, for "L21V"
RESULT: Fulfilled

QUERY: State whether the measured protein stability index reaches 3, counting equality as reaching it, for "I24W"
RESULT: Not fulfilled

QUERY: State whether the measured protein stability index reaches 3, counting equality as reaching it, for "Q13F"
RESULT: Not fulfilled

QUERY: State whether the measured protein stability index reaches 3, counting equality as reaching it, for "I24Y"
RESULT: Fulfilled

QUERY: State whether the measured protein stability index reaches 3, counting equality as reaching it, for "P4C"
RESULT: Not fulfilled

QUERY: State whether the measured protein stability index reaches 3, counting equality as reaching it, for "S6L"
RESULT: Not fulfilled

QUERY: State whether the measured protein stability index reaches 3, counting equality as reaching it, for "P1Y"
RESULT: Not fulfilled

QUERY: State whether the measured protein stability index reaches 3, counting equality as reaching it, for "D12V"
RESULT: Not fulfilled

QUERY: State whether the measured protein stability index reaches 3, counting equality as reaching it, for "Q19E"
RESULT: Fulfilled

QUERY: State whether the measured protein stability index reaches 3, counting equality as reaching it, for "V8N"
RESULT: Fulfilled

QUERY: State whether the measured protein stability index reaches 3, counting equality as reaching it, for "P23Q"
RESULT: Not fulfilled

QUERY: State whether the measured protein stability index reaches 3, counting equality as reaching it, for "P20T"
RESULT: Not fulfilled

QUERY: State whether the measured protein stability index reaches 3, counting equality as reaching it, for "I24G"
RESULT: Fulfilled

QUERY: State whether the measured protein stability index reaches 3, counting equality as reaching it, for "L22R"
RESULT: Fulfilled

QUERY: State whether the measured protein stability index reaches 3, counting equality as reaching it, for "I24V"
RESULT: Fulfilled

QUERY: State whether the measured protein stability index reaches 3, counting equality as reaching it, for "E3H"
RESULT: Not fulfilled

QUERY: State whether the measured protein stability index reaches 3, counting equality as reaching it, for "H18R"
RESULT: Not fulfilled

QUERY: State whether the measured protein stability index reaches 3, counting equality as reaching it, for "L5Y"
RESULT: Not fulfilled

QUERY: State whether the measured protein stability index reaches 3, counting equality as reaching it, for "D12Q"
RESULT: Not fulfilled

QUERY: State whether the measured protein stability index reaches 3, counting equality as reaching it, for "I24A"
RESULT: Fulfilled

QUERY: State whether the measured protein stability index reaches 3, counting equality as reaching it, for "H18D"
RESULT: Fulfilled

QUERY: State whether the measured protein stability index reaches 3, counting equality as reaching it, for "P23K"
RESULT: Not fulfilled

QUERY: State whether the measured protein stability index reaches 3, counting equality as reaching it, for "P2Y"
RESULT: Not fulfilled

QUERY: State whether the measured protein stability index reaches 3, counting equality as reaching it, for "P20S"
RESULT: Fulfilled

QUERY: State whether the measured protein stability index reaches 3, counting equality as reaching it, for "W15C"
RESULT: Fulfilled

QUERY: State whether the measured protein stability index reaches 3, counting equality as reaching it, for "L22C"
RESULT: Fulfilled

QUERY: State whether the measured protein stability index reaches 3, counting equality as reaching it, for "P1R"
RESULT: Not fulfilled

QUERY: State whether the measured protein stability index reaches 3, counting equality as reaching it, for "P1A"
RESULT: Not fulfilled

QUERY: State whether the measured protein stability index reaches 3, counting equality as reaching it, for "V8C"
RESULT: Not fulfilled

QUERY: State whether the measured protein stability index reaches 3, counting equality as reaching it, for "P23S"
RESULT: Not fulfilled

QUERY: State whether the measured protein stability index reaches 3, counting equality as reaching it, for "Q19F"
RESULT: Not fulfilled

QUERY: State whether the measured protein stability index reaches 3, counting equality as reaching it, for "P2M"
RESULT: Not fulfilled

QUERY: State whether the measured protein stability index reaches 3, counting equality as reaching it, for "D17S"
RESULT: Not fulfilled

QUERY: State whether the measured protein stability index reaches 3, counting equality as reaching it, for "P4R"
RESULT: Not fulfilled

QUERY: State whether the measured protein stability index reaches 3, counting equality as reaching it, for "L21D"
RESULT: Fulfilled

QUERY: State whether the measured protein stability index reaches 3, counting equality as reaching it, for "Q16S"
RESULT: Not fulfilled

QUERY: State whether the measured protein stability index reaches 3, counting equality as reaching it, for "Q13T"
RESULT: Not fulfilled

QUERY: State whether the measured protein stability index reaches 3, counting equality as reaching it, for "P4E"
RESULT: Fulfilled

QUERY: State whether the measured protein stability index reaches 3, counting equality as reaching it, for "D12N"
RESULT: Not fulfilled

QUERY: State whether the measured protein stability index reaches 3, counting equality as reaching it, for "I24L"
RESULT: Fulfilled

QUERY: State whether the measured protein stability index reaches 3, counting equality as reaching it, for "L5N"
RESULT: Fulfilled

QUERY: State whether the measured protein stability index reaches 3, counting equality as reaching it, for "P1G"
RESULT: Not fulfilled

QUERY: State whether the measured protein stability index reaches 3, counting equality as reaching it, for "L22D"
RESULT: Fulfilled

QUERY: State whether the measured protein stability index reaches 3, counting equality as reaching it, for "M10S"
RESULT: Fulfilled

QUERY: State whether the measured protein stability index reaches 3, counting equality as reaching it, for "V8Y"
RESULT: Not fulfilled

QUERY: State whether the measured protein stability index reaches 3, counting equality as reaching it, for "Q13V"
RESULT: Not fulfilled

QUERY: State whether the measured protein stability index reaches 3, counting equality as reaching it, for "R14G"
RESULT: Fulfilled
